Biological target: human melanocortin 4 receptor (human, UniProt P32245 1-332)
Sequence (P32245 whole entry): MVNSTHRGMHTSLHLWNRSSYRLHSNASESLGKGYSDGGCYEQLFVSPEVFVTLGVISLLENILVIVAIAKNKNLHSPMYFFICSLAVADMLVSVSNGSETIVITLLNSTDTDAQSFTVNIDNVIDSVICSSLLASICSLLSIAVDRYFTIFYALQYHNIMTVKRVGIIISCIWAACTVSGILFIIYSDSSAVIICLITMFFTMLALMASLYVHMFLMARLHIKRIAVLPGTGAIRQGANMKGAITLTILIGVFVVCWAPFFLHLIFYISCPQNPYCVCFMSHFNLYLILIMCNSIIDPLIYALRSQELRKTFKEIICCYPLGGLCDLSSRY
Experiment: cell-based or functional assay
Positions of bridges follow the written chain, without caps; N, C: chain ends. Non-standard residues stand in square brackets, D forms with d. 1Nal = N[C@@H](Cc1cccc2ccccc12)C(=O)O; Nle = CCCC[C@H](N)C(=O)O
We label by threshold. Values of EC50 (nM), normal system (cAMP) strictly beneath 40 nM are met. Values of 40 nM and up are not met.

See these solved cases before continuing.
* Ac-[Nle]DW[dF]R[1Nal]K-NMe2 (lactam 2-7, also called Compound No. 36) [Ac-Nle-cyclo(-Asp-Trp-D-Phe-Arg-Nal 1-Lys)-N(CH3)2] | not met
* Ac-[Nle]DW[dF]R[1Nal]K-NHEt (lactam 2-7; SMILES CCCC[C@H](NC(C)=O)C(=O)N[C@H]1CC(=O)NCCCC[C@@H](C(=O)NCC)NC(=O)[C@H](Cc2cccc3ccccc23)NC(=O)[C@H](CCCNC(=N)N)NC(=O)[C@@H](Cc2ccccc2)NC(=O)[C@H](Cc2c[nH]c3ccccc23)NC1=O, also called Compound No. 38) [Ac-Nle-cyclo(-Asp-Trp-D-Phe-Arg-Nal 1-Lys)-NH-CH2-CH3] | not met
* XDHFRXK (N-terminal acetyl; Nle at 1 (X); D-Phe at 4; Nal 1 at 6 (X); cyclo(Asp 2 to Lys 7); C-terminal ethylamide -NH-CH2-CH3, also called Compound No. 39) [Ac-Nle-cyclo(-Asp-His-D-Phe-Arg-Nal 1-Lys)-NH-CH2-CH3] | met
* Ac-DH[dF]RWK-NHEt (lactam 1-6, also called Compound No. 40) [Ac-cyclo(-Asp-His-D-Phe-Arg-Trp-Lys)-NH-CH2-CH3] | met

From here, focus on the item given below.
Exam item: Input XDHFRXK (N-terminal acetyl; Nle at 1 (X); D-Phe at 4; Nal 1 at 6 (X); cyclo(Asp 2 to Lys 7); C-terminal dimethylamide -N(CH3)2, also called Compound No. 37) [Ac-Nle-cyclo(-Asp-His-D-Phe-Arg-Nal 1-Lys)-N(CH3)2] ; condition: EC50 (nM), normal system (cAMP) strictly below 40 nM. Does it hold?
Marked response: not met
